- TARGET UNDER TEST: T1, His-tagged, full-length PCSK9 (human, UniProt A8T644 31-152; Q8NBP7 153-692)
- T1 construct: Target protein of the PCSK9/EGF(A) TR-FRET assay (10 nM); also called His-PCSK9; proprotein convertase subtilisin/kexin type 9
- T1 sequence (A8T644 31-152 limits assumed, chain 1 of 2): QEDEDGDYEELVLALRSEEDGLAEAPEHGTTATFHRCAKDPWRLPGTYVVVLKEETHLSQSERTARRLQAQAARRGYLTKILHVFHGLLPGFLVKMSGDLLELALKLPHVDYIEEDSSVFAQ
- T1 sequence (A8T644 other isoform, or with tags, fused parts or gaps limits assumed, chain 2 of 2): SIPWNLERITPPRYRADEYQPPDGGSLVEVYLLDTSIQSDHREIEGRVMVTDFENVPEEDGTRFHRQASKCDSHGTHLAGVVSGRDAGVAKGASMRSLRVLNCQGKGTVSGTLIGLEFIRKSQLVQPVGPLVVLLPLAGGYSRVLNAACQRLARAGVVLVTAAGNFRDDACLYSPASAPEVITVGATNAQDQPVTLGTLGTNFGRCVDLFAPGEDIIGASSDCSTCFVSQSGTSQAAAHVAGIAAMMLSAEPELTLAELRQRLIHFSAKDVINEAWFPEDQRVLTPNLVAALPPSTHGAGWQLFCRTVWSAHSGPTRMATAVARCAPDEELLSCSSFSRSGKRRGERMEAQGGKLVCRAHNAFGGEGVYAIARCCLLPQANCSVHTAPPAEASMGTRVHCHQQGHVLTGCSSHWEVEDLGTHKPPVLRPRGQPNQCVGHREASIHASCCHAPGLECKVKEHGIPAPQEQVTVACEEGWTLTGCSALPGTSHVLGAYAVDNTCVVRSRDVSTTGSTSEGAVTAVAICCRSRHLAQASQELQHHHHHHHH
- EXPERIMENTAL DETAILS: TR-FRET competition; competitor EGF(A)-Fc on His-PCSK9
Bridge positions count the residues as written; N and C are the ends. Square brackets hold non-standard residues; d marks the D form. Primed or numbered codes have the meaning given here. Hyp′ = 3-hydroxyproline
Recorded IC50 for the following binders

[
  {
    "BINDER": "Ac-CRLPWNLQRIG[dL]PC-NH2 (disulfide 1-14; SMILES CC[C@H](C)[C@@H]1NC(=O)[C@H](CCCNC(=N)N)NC(=O)[C@H](CCC(N)=O)NC(=O)[C@H](CC(C)C)NC(=O)[C@H](CC(N)=O)NC(=O)[C@H](Cc2c[nH]c3ccccc23)NC(=O)[C@@H]2CCCN2C(=O)[C@H](CC(C)C)NC(=O)[C@H](CCCNC(=N)N)NC(=O)[C@@H](NC(C)=O)CSSC[C@@H](C(N)=O)NC(=O)[C@@H]2CCCN2C(=O)[C@@H](CC(C)C)NC(=O)CNC1=O) [Compound 100]",
    "IC50": "> 50 µM"
  },
  {
    "BINDER": "Ac-CRLPWNLQRIGAPC-NH2 (disulfide 1-14; SMILES CC[C@H](C)[C@@H]1NC(=O)[C@H](CCCNC(=N)N)NC(=O)[C@H](CCC(N)=O)NC(=O)[C@H](CC(C)C)NC(=O)[C@H](CC(N)=O)NC(=O)[C@H](Cc2c[nH]c3ccccc23)NC(=O)[C@@H]2CCCN2C(=O)[C@H](CC(C)C)NC(=O)[C@H](CCCNC(=N)N)NC(=O)[C@@H](NC(C)=O)CSSC[C@@H](C(N)=O)NC(=O)[C@@H]2CCCN2C(=O)[C@H](C)NC(=O)CNC1=O) [Compound 69]",
    "IC50": "> 50 µM"
  },
  {
    "BINDER": "H-WCLWNLKRIGSQCWF-OH (disulfide 2-13; SMILES CC[C@H](C)[C@@H]1NC(=O)[C@H](CCCNC(=N)N)NC(=O)[C@H](CCCCN)NC(=O)[C@H](CC(C)C)NC(=O)[C@H](CC(N)=O)NC(=O)[C@H](Cc2c[nH]c3ccccc23)NC(=O)[C@H](CC(C)C)NC(=O)[C@@H](NC(=O)[C@@H](N)Cc2c[nH]c3ccccc23)CSSC[C@@H](C(=O)N[C@@H](Cc2c[nH]c3ccccc23)C(=O)N[C@@H](Cc2ccccc2)C(=O)O)NC(=O)[C@H](CCC(N)=O)NC(=O)[C@H](CO)NC(=O)CNC1=O) [Compound 66]",
    "IC50": "31.3 µM"
  },
  {
    "BINDER": "Ac-SGCRL[Hyp′]WNLQRIGLPC-NH2 (disulfide 3-16) [Compound 37]",
    "IC50": "> 50 µM"
  },
  {
    "BINDER": "Ac-CRLP[dW]NLQRIGLPC-NH2 (disulfide 1-14; SMILES CC[C@H](C)[C@@H]1NC(=O)[C@H](CCCNC(=N)N)NC(=O)[C@H](CCC(N)=O)NC(=O)[C@H](CC(C)C)NC(=O)[C@H](CC(N)=O)NC(=O)[C@@H](Cc2c[nH]c3ccccc23)NC(=O)[C@@H]2CCCN2C(=O)[C@H](CC(C)C)NC(=O)[C@H](CCCNC(=N)N)NC(=O)[C@@H](NC(C)=O)CSSC[C@@H](C(N)=O)NC(=O)[C@@H]2CCCN2C(=O)[C@H](CC(C)C)NC(=O)CNC1=O) [Compound 106]",
    "IC50": "> 50 µM"
  }
]
